Test system: KM12 colon
Experiment: NCI tumour cell line growth inhibition, 48 h
observable: TGI

Query string: Find TGI for O=[N+]([O-])c1ccc2c(c1)C(c1ccccc1Cl)=Nc1c(n[nH]c1-c1cccnc1)N2 on KM12 colon and write it down.
Result string: > 25 µM

Query string: Find TGI for O=C1CC2CC(CC3(CO3)C2)C1F (stereo unspecified) on KM12 colon and write it down.
Result string: > 100 µM

Query string: Find TGI for CCCC[C@H]1C(=O)O[C@H](C)[C@H](NC(=O)c2cccc(NC=O)c2OC)C(=O)O[C@@H](C)[C@@H]1OC(=O)CC(C)C (tested in a mixture with another compound) on KM12 colon and write it down.
Result string: 46.9 µM

Query string: Find TGI for COc1cc(CNc2c3ccccc3nc3ccccc23)cc(OC)c1OC on KM12 colon and write it down.
Result string: 21.3 µM

Query string: Find TGI for C=CC1(c2ccc3ccccc3c2)OCC(CC)O1 (stereo unspecified) on KM12 colon and write it down.
Result string: > 100 µM

Query string: Find TGI for Cc1cccc(C)c1N=Nc1ccc(O)c(CN(C)C)c1 on KM12 colon and write it down.
Result string: > 100 µM

Query string: Find TGI for O=S(=O)(O)c1ccc2c(N=Nc3ccccc3)c(O)ccc2c1 on KM12 colon and write it down.
Result string: > 100 µM

Query string: Find TGI for O=c1[nH]c(=O)n(CCOCP(=O)(O)O)nc1Br on KM12 colon and write it down.
Result string: > 100 µM

Query string: Find TGI for Cn1cc(C2=C(c3cn(CCCCCO)c4ccccc34)C(=O)NC2=O)c2ccccc21 on KM12 colon and write it down.
Result string: 16.1 µM

Query string: Find TGI for COC(=O)Cn1c(=O)oc2nc(-c3ccccc3)cc(C(F)(F)F)c21 on KM12 colon and write it down.
Result string: > 100 µM

Query string: Find TGI for Oc1ccccc1/C=N\NC(=S)N/N=C/c1ccccc1O on KM12 colon and write it down.
Result string: 21.1 µM

Query string: Find TGI for COc1cc(/C=C2\N=C(c3ccccc3)N(c3nc4ccc(Sc5ccccc5)cc4[nH]3)C2=O)cc(OC)c1OC on KM12 colon and write it down.
Result string: 58.8 µM

Query string: Find TGI for CCCCCCCCCCOC(=O)NCCC on KM12 colon and write it down.
Result string: > 100 µM

Query string: Find TGI for C#CCOCn1cc(C)c(=O)[nH]c1=O on KM12 colon and write it down.
Result string: > 100 µM

Query string: Find TGI for NCCSC(c1ccccc1)(c1ccccc1)c1ccccc1 on KM12 colon and write it down.
Result string: 4.82 µM

Query string: Find TGI for CCCCCCCCCCCCCCCCN(CC)CC on KM12 colon and write it down.
Result string: 3.59 µM

Query string: Find TGI for CC1=CC(=O)N(n2c(-c3ccccc3)n[nH]c2=O)C1=O on KM12 colon and write it down.
Result string: > 100 µM

Query string: Find TGI for O=C(O)c1c2c(cc3c(=O)cc(-c4ccccc4)oc13)CCCC2 on KM12 colon and write it down.
Result string: > 100 µM

Query string: Find TGI for O=S(=O)(CCC[C@H]1[C@@H](CCOCc2ccccc2)C2CCCN1O2)c1ccccc1 (stereo partly specified) on KM12 colon and write it down.
Result string: > 100 µM

Query string: Find TGI for Cc1sc2c(c1C)C(c1ccc(Cl)cc1)=N[C@@H](CC(=O)NCCCN1CCN(C)CC1)c1nnc(C)n1-2 on KM12 colon and write it down.
Result string: > 100 µM

Query string: Find TGI for COc1cc(O)c2c(c1)C(=O)C1=C(C2=O)C(O)C[C@@](C)(O)C1 (stereo partly specified) on KM12 colon and write it down.
Result string: 8.91 µM
